The measurements presented in this section are drawn from patent US6235751A.

# System: Escherichia coli 1507E
Endpoint Name: MIC

Worked examples, 3 compounds total:
O=C(O)c1cn(C2CC2)c2cc(N3CCNCC3)c(F)cc2c1=O [Ciprofloxacin, reference compound] : 7 ng/mL
Cc1c(N2CC3=CCCN[C@H]3C2)c(F)cn2c(=O)c(C(=O)O)cc(C3CC3)c12 : 7 ng/mL
Cc1c(N2CC(CN)C(OCc3cccnc3)C2)c(F)cn2c(=O)c(C(=O)O)cc(C3CC3)c12 (stereo not shown) : 13 ng/mL

Now turn to the next compound.
Sure, the documented MIC for CC1CN(c2c(F)c(N)c3c(=O)c(C(=O)O)cn(C4CC4)c3c2F)CC(C)N1 (stereo not shown) [Sparfloxacin, reference compound] is 25 ng/mL

---

# Test system: Salmonella typhimurium
Endpoint Name: MIC (ng/mL)
Provide the reading as a plain figure in ng/mL.

O=C(O)c1cn(C2CC2)c2cc(N3CCNCC3)c(F)cc2c1=O [Ciprofloxacin, reference compound] : 7
Cc1c(N2CC3=CCCN[C@H]3C2)c(F)cn2c(=O)c(C(=O)O)cc(C3CC3)c12 [Example 1] : 4
Cc1c(N2CC(CN)C(OCc3cccnc3)C2)c(F)cn2c(=O)c(C(=O)O)cc(C3CC3)c12 (stereo not shown) [Example 16] : 4

Now turn to the next compound.
Sure, the documented MIC for CC1CN(c2c(F)c(N)c3c(=O)c(C(=O)O)cn(C4CC4)c3c2F)CC(C)N1 (stereo not shown) [Sparfloxacin, reference compound] is 7

---

# Tested on: Pseudomonas aeruginosa 1592E
# Assay Summary: Antibacterial activity in vitro (MIC, two-fold agar dilution)
# Format: cell-based
# Test Parameters: Muller Hinton agar, 10^7 CFU/ml, 37° C., 18 hours, read-out: Minimal Inhibitory Concentration (MIC)
Endpoint Name: MIC (µg/mL)
Provide the reading as a plain figure in µg/mL.

O=C(O)c1cn(C2CC2)c2cc(N3CCNCC3)c(F)cc2c1=O [Ciprofloxacin, reference compound] : 0.195
CC1CN(c2c(F)c(N)c3c(=O)c(C(=O)O)cn(C4CC4)c3c2F)CC(C)N1 (stereo not shown) [Sparfloxacin, reference compound] : 0.781
Cc1c(N2CC3=CCCN[C@H]3C2)c(F)cn2c(=O)c(C(=O)O)cc(C3CC3)c12 : 0.098

Now turn to the next molecule.
Sure, the documented MIC for Cc1c(N2CC(CN)C(OCc3cccnc3)C2)c(F)cn2c(=O)c(C(=O)O)cc(C3CC3)c12 (stereo not shown) is 0.195

---

Listing: MIC of selected compounds
# Tested on: Klebsiella aerogenes 1552E
Provide the reading as a plain figure in µg/mL.

Cc1c(N2CC(CN)C(OCc3cccnc3)C2)c(F)cn2c(=O)c(C(=O)O)cc(C3CC3)c12 (stereo not shown) [Example 16] : 0.013
CC1CN(c2c(F)c(N)c3c(=O)c(C(=O)O)cn(C4CC4)c3c2F)CC(C)N1 (stereo not shown) [Sparfloxacin, reference compound] : 0.025
Cc1c(N2CC3=CCCN[C@H]3C2)c(F)cn2c(=O)c(C(=O)O)cc(C3CC3)c12 [Example 1] : 0.013

Now turn to the next compound.
Sure, the documented MIC for O=C(O)c1cn(C2CC2)c2cc(N3CCNCC3)c(F)cc2c1=O [Ciprofloxacin, reference compound] is 0.013
